Measured self-cleavage, listed per entry.
B1: CPEB3 Ribozyme (parent)
chain: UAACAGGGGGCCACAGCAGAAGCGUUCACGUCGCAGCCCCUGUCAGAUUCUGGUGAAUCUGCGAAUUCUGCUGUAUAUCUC

Variants of: B1
Experiment: self-cleavage, relative activity (ratio to wild type); higher = more cleavage; in vitro, sequencing
API doc: respond with a numeric literal and nothing else, no unit.

The examples below pair each entry with its known result.
[
  {
    "Mutation Id": "G16U G33C",
    "self-cleavage": 0.09
  },
  {
    "Mutation Id": "G24A G30A",
    "self-cleavage": 0.24
  },
  {
    "Mutation Id": "A47G U58A",
    "self-cleavage": 0.57
  },
  {
    "Mutation Id": "C39U U58C",
    "self-cleavage": 0.3
  },
  {
    "Mutation Id": "A13U U54A",
    "self-cleavage": 1.18
  },
  {
    "Mutation Id": "A20U U69A",
    "self-cleavage": 0.22
  }
]

## Task Which self-cleavage is listed for A21G G24U ?
## Result 0.44

## Task Which self-cleavage is listed for C4A U25C ?
## Result 0.52

## Task Which self-cleavage is listed for G8A U48A ?
## Result 0.27

## Task Which self-cleavage is listed for U58A U69C ?
## Result 0.28

## Task Which self-cleavage is listed for C29U U80C ?
## Result 0.58

## Task Which self-cleavage is listed for U58A U72G ?
## Result 0.42

## Task Which self-cleavage is listed for G7C A57U ?
## Result 0.19

## Task Which self-cleavage is listed for C14U U48C ?
## Result 0.97
